tested-on: T1, human IL-4 receptor alpha chain on cells (TF-1 cells, primary human T-cell blasts and B cells) (human, UniProt P24394 26-825)
T1 sequence (looked up): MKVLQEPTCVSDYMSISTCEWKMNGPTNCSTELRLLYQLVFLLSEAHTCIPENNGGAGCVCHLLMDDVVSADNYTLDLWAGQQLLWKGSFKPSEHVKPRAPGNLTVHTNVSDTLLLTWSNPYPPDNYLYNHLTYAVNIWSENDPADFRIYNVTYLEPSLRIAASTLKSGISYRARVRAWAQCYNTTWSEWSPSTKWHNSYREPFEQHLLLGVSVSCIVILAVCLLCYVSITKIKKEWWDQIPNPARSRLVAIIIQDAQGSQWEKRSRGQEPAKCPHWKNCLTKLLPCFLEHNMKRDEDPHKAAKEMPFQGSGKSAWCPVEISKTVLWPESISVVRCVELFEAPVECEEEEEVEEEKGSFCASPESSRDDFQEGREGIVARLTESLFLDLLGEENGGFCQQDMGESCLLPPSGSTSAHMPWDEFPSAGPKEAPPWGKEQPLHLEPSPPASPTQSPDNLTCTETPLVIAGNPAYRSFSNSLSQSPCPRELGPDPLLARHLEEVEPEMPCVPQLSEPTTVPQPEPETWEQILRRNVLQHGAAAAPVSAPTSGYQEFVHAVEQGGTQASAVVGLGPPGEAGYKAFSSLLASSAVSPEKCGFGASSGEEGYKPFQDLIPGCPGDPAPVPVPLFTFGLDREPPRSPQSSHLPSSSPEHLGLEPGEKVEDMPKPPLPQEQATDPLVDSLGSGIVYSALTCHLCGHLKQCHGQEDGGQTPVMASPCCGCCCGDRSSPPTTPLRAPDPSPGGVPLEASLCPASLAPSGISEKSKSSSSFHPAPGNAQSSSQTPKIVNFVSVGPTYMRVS
assay-info: cell-based or functional assay
test-readout: T-cell blast IC50, nM (proliferation to IL-4) (nM)
Value expressed in nM; do not type the unit.

q: Dear colleague, I am looking for the recorded T-cell blast IC50, nM (proliferation to IL-4) of the following binder: IL4-RE-A104C, PEGylated with linear 22 kD mPEG-maleimide (ligand, linear 22 kD methoxy-polyethylene glycol-maleimide on Cys 104 (numbered according to wild type IL-4), also called PEG-IL4RE) MHKCDITLQEIIKTLNSLTEQKTLCTELTVTDIFAASKNTTEKETFCRAATVLRQFYSHHEKDTRCLGATAQQFHRHKQLIRFLKRLDRNLWGLAGLNSCPVKECNQSTLENFLERLKTIMDEKDSKCSS
a: 4.67
